Assay: Particle size distribution by laser diffraction (Malvern apparatus)
Assay type: physicochemical
Settings: micronised beclometasone dipropionate; volume diameter of 10% of the particles
Assay endpoint: d (v, 0.1) (μm)
Respond with the bare value in μm.

Sample records with d (v, 0.1):
CCC(=O)OCC(=O)[C@@]1(OC(=O)CC)[C@@H](C)C[C@H]2[C@@H]3CCC4=CC(=O)C=C[C@]4(C)[C@@]3(Cl)[C@@H](O)C[C@@]21C [Batch 2, beclometasone dipropionate] ... 0.96
CCC(=O)OCC(=O)[C@@]1(OC(=O)CC)[C@@H](C)C[C@H]2[C@@H]3CCC4=CC(=O)C=C[C@]4(C)[C@@]3(Cl)[C@@H](O)C[C@@]21C [Batch 1, beclometasone dipropionate] ... 0.86
CCC(=O)OCC(=O)[C@@]1(OC(=O)CC)[C@@H](C)C[C@H]2[C@@H]3CCC4=CC(=O)C=C[C@]4(C)[C@@]3(Cl)[C@@H](O)C[C@@]21C [Batch 3, beclometasone dipropionate] ... 0.95

As a next step, examine the molecule that follows.
Name the recorded d (v, 0.1) of the item CCC(=O)OCC(=O)[C@@]1(OC(=O)CC)[C@@H](C)C[C@H]2[C@@H]3CCC4=CC(=O)C=C[C@]4(C)[C@@]3(Cl)[C@@H](O)C[C@@]21C [Batch 4, beclometasone dipropionate] in your answer.
0.91

----------
Entries and their d (v, 0.9)
Assay: Particle size distribution by laser diffraction (Malvern apparatus)
Type: physicochemical
Details: micronised beclometasone dipropionate; volume diameter of 90% of the particles
Respond with the bare value in μm.

Sample records with d (v, 0.9):
CCC(=O)OCC(=O)[C@@]1(OC(=O)CC)[C@@H](C)C[C@H]2[C@@H]3CCC4=CC(=O)C=C[C@]4(C)[C@@]3(Cl)[C@@H](O)C[C@@]21C [Batch 3, beclometasone dipropionate] ... 2.97
CCC(=O)OCC(=O)[C@@]1(OC(=O)CC)[C@@H](C)C[C@H]2[C@@H]3CCC4=CC(=O)C=C[C@]4(C)[C@@]3(Cl)[C@@H](O)C[C@@]21C [Batch 2, beclometasone dipropionate] ... 3.33
CCC(=O)OCC(=O)[C@@]1(OC(=O)CC)[C@@H](C)C[C@H]2[C@@H]3CCC4=CC(=O)C=C[C@]4(C)[C@@]3(Cl)[C@@H](O)C[C@@]21C [Batch 4, beclometasone dipropionate] ... 3.76

Name the recorded d (v, 0.9) of the item CCC(=O)OCC(=O)[C@@]1(OC(=O)CC)[C@@H](C)C[C@H]2[C@@H]3CCC4=CC(=O)C=C[C@]4(C)[C@@]3(Cl)[C@@H](O)C[C@@]21C [Batch 1, beclometasone dipropionate] in your answer.
3.15

----------
Assay: Specific Surface Area by BET nitrogen adsorption (Coulter SA3100)
Format: physicochemical
Conditions: micronised beclometasone dipropionate; mean of three determinations
Assay endpoint: SSA (m^2/g)
Respond with the bare value in m^2/g.

Sample records with SSA:
CCC(=O)OCC(=O)[C@@]1(OC(=O)CC)[C@@H](C)C[C@H]2[C@@H]3CCC4=CC(=O)C=C[C@]4(C)[C@@]3(Cl)[C@@H](O)C[C@@]21C [Batch 2, beclometasone dipropionate] ... 5.90
CCC(=O)OCC(=O)[C@@]1(OC(=O)CC)[C@@H](C)C[C@H]2[C@@H]3CCC4=CC(=O)C=C[C@]4(C)[C@@]3(Cl)[C@@H](O)C[C@@]21C [Batch 4, beclometasone dipropionate] ... 6.28
CCC(=O)OCC(=O)[C@@]1(OC(=O)CC)[C@@H](C)C[C@H]2[C@@H]3CCC4=CC(=O)C=C[C@]4(C)[C@@]3(Cl)[C@@H](O)C[C@@]21C [Batch 1, beclometasone dipropionate] ... 6.61

As a next step, examine the compound that follows.
Name the recorded SSA of the item CCC(=O)OCC(=O)[C@@]1(OC(=O)CC)[C@@H](C)C[C@H]2[C@@H]3CCC4=CC(=O)C=C[C@]4(C)[C@@]3(Cl)[C@@H](O)C[C@@]21C [Batch 3, beclometasone dipropionate] in your answer.
6.12
